- STUDY TARGET: Chymase (Homo sapiens) (UniProt P23946)
- Sequence (whole entry): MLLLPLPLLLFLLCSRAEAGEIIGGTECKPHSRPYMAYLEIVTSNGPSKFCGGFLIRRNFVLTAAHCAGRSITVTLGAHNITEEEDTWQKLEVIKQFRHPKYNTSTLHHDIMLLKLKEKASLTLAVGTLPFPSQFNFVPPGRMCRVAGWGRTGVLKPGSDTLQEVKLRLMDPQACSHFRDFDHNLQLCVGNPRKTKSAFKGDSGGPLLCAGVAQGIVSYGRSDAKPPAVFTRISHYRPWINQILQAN
- ASSAY SUMMARY: Inhibitory activity against serine protease chymase was determined
MEASURED PROPERTY: Inhibitory activity (nM)

COC(=O)c1ccc(C(=O)n2cnc3cc4ccccc4cc3c2=O)cc1: 610

P: O=C1S/C(=C/c2ccc(O)cc2)C(=O)N1S(=O)(=O)c1ccc2ccccc2c1
Q: Cc1ccc(/C=C2\SC(=O)N(C(=O)c3ccc4ccccc4c3)C2=O)o1
R: COC(=O)C(c1ccc2ccccc2c1)N1C(=O)S/C(=C\c2ccc(C)o2)C1=O (stereo not given)
S: O=C1SC(Cc2ccc3ccccc3c2)C(=O)N1Cc1ccoc1 (stereo not given)
query: rank_up(items): orders items by reported Inhibitory activity in ascending numerical order. Form entry: ranked labels (order as requested).
result: Q, P, R, S
